The reported numbers originate from ChEMBL document CHEMBL3507680.

assay: Human HepG2 cell viability assay in 384 well format; format: toxicity, cell-based; set-up: dose 125 nL, time 70.5 hour; concentration not given beside the values; conditions: HepG2 cells, read-out: Inhibition
cytotoxicity at 70.5 h for assorted compounds

COMPOUND | cytotoxicity at 70.5 h / %
CN(CC(=O)NCC(O)c1cccc(F)c1)C(=O)OC(C)(C)C (stereo unspecified) | -3.05
CCC1=NN2C(=N)/C(=C\c3cccn3-c3cccc(Cl)c3)C(=O)N=C2S1 | -0.175
O=C(CCOc1ccc(Br)cc1)N1CCN(c2cnccn2)CC1 | 24.8
COCC(c1cccc(C(F)(F)F)c1)N(C)C(=O)c1cc(C)no1 (stereo unspecified) | 20
Cc1ccc2[nH]c(C(=O)N3CCC4(CC3)C(=O)NCCN4C)nc2c1 | -6.83
CCn1c(CN2CCOC(Cn3cncn3)C2)nc2c(F)cccc21 (stereo unspecified) | 15.4

* * *

test: Human HepG2 cell viability assay in 384 well format; type: toxicity, cell-based; set-up: dose 125 nL, time 70.5 hour; concentration not given beside the values; details: HepG2 cells, read-out: Inhibition
cytotoxicity at 70.5 h for assorted compounds
ENDPOINT: cytotoxicity at 70.5 h (%)

COMPOUND | UNIT_ABBREVIATION | READING
CCc1nc(CN2CCCN(C(=O)c3cc(C)on3)CC2)cs1 | % | -1.87
CS(=O)(=O)NCc1noc2c1CN(C(=O)C1CCC1)CC2 | % | -8.52
Cn1cnc2c1CCN(CCS(=O)(=O)c1ccccc1)C2 | % | -17
CCn1c(C)cc(C(=O)N2CCCC(n3ccnc3C)C2)c1C (stereo not drawn) | % | -6.2
N#Cc1ccc(NCc2cccc(OCC3CCCO3)c2)nc1 (stereo not drawn) | % | -8.7
CN(C)C(=O)[C@@]12CCO[C@@H]1CCN(Cc1ccc3c(c1)OCO3)C2 | % | 1.17
Cc1cc(C)nc(N2CCC(CNC(=O)c3ccccn3)CC2)n1 | % | 2.6
CCn1nc(C)c(NC(=O)CCn2ncc3cc(C)ccc32)c1C | % | 13.9

* * *

assay: Human HepG2 cell viability assay in 384 well format; format: toxicity, cell-based; parameters: dose 125 nL, time 70.5 hour; concentration not given beside the values; details: HepG2 cells, read-out: Inhibition

COMPOUND | cytotoxicity at 70.5 h [%]
CN(C)C(=O)[C@@H]1CCO[C@@H]2CCN(c3ncccn3)C[C@@H]21 | -2.08
Cn1cccc1C(=O)N1CCc2c(CNS(C)(=O)=O)cncc2C1 | -18.4
c1cnc2c(c1)cc([C@@H]1CCCO1)n2CCN1CCCCC1 | 0.422
Clc1ccc2cccnc2c1CN1CCn2c(nnc2C2CC2)C1 | -13.3
CCCC(NC(=O)c1ccc(OC)cc1F)c1nnn[nH]1 (stereo unspecified) | -3.7
CNc1cc(C)nc(NCc2cc(C)cc3c(C)c(C)[nH]c23)n1 | 67.2
CC(Nc1ncnc2c1CCNC2)c1ccc2c(c1)CCCC2 (stereo unspecified) | -2.47
COc1cccc2c1ccn2CCNC(=O)CCNc1ncccn1 | -18
C1CC(CO[C@@H]2CC[C@H]3[C@H]2OCCN3CC2CCOCC2)CCO1 | -81.4
CNC(=O)C1CCN(S(C)(=O)=O)CC1 | -10.2
COCC1CC2(CCN(Cc3nc(C)cs3)CC2)CO1 (stereo unspecified) | -8.71
O=C(Cn1cnc2sccc2c1=O)NCCc1nnc2ccccn12 | -11.3
Cn1cc(C(=O)NC[C@H]2OC[C@@H]3CCN(C4CCOCC4)C[C@@H]32)cn1 | -3.43
Cc1noc(C)c1CN1C(=O)[C@H]2CC[C@@H]1CN(Cc1ncc[nH]1)C2 | -0.471
Cc1occc1C(=O)N1C[C@@H]2CCCO[C@@H]2[C@H](NS(C)(=O)=O)C1 | -1.97
Cc1nn(C)c2c(=O)n(CC(=O)NCC3CCCO3)ccc12 (stereo unspecified) | -4.99
CCNC(=O)[C@@H]1C[C@@H](n2cc(CC3CCCCC3)nn2)CN1 | -9.79
Cn1ccc(C(=O)NCc2cccc(CN3CCCC3)c2)cc1=O | -3.99
CC(C)Nc1nc(N2CCCC2)nc2c1CN(S(C)(=O)=O)CC2 | -1.08
CN1CCC(c2nnc(CN3CCCC3)n2C2CC2)CC1 | -6.39
O=C(CCC(=O)NCc1cccc(Br)c1)NCCN1CCCC1 | 23.6
O=C(NCC1CC1)C1CCC2(CCN(C(=O)c3cccs3)CC2)O1 (stereo unspecified) | -15.2
O=C(c1ccc(Br)o1)N1CCN(Cc2ccc(F)cc2)CC1 | 7.95
Cc1ccc(Oc2cc(CN)ccn2)cc1C | -22.3
Cc1nc(C2CCCN(C(=O)C3=NN(C(C)C)C(=O)CC3)C2)no1 (stereo unspecified) | -9.12
CC(C)NC(=O)C(NC(=O)N1CCN(c2ccc(Cl)cc2)CC1)C(C)C (stereo unspecified) | -13.3
